src = ChEMBL document CHEMBL1201862

Would you mind telling me the reported GI50 of each entry?
System: MDA-MB-435
Assay: NCI tumour cell line growth inhibition, 48 h
Active and inactive are the calls of the source. Rule as the data show it: active = GI50 up to about 1.1 µM and inactive = higher.

compound	target_or_test_system	measure	result
COc1ccccc1/N=N/C(=N\NC(=O)c1ccc(C)cc1)c1ccc(N(CCC#N)CCC#N)cc1C	MDA-MB-435	GI50	39.5 µM (inactive)
OCCCCn1cc(Cn2ncc3c(NCc4ccccc4)ncnc32)nn1	MDA-MB-435	GI50	33.7 µM (inactive)

For every item below, please supply its GI50.
1. NCC[Se][Se]CCN
2. C=C=C(CC(CC(=C)Br)(C(=O)OC)C(=O)OC)S(=O)(=O)c1ccccc1
3. CC(=O)OCC1=CC2OC(=O)C3=COC(OC4OC(CO)C(O)C(O)C4O)C1C32 (stereo not given)
4. COC12C=CC(C=C1C#N)CC2.COC12C=CC(CC1)CC2=O (stereo not given)
5. C1=CCC[C@@H]2CN3CCCC/C=C\CCCC[C@H]4C[C@H](CN(CCCCCCCC1)C4)[C@H]2CC3
6. CC1(C)OC[C@@]2([C@@H]3CC[C@@H](C3)C2(C)C)N1O
7. C#CCn1ncc2c(SC)ncnc21
8. CC1(C)N=C(/C(C#N)=[N+](/[O-])C(=O)c2ccccc2)C(C)(C)N1O

Result:
1. 12.3 µM (inactive)
2. 1.74 µM (inactive)
3. > 100 µM (inactive)
4. > 100 µM (inactive)
5. 8.69 µM (inactive)
6. > 100 µM (inactive)
7. > 100 µM (inactive)
8. > 100 µM (inactive)

###

System: MOLT-4
Assay: NCI tumour cell line growth inhibition, 48 h
The source made the active and inactive calls. Cut-off read from the data, not from the text of the source: active = GI50 up to about 1.1 µM and inactive = higher.
measure: GI50

structure_smiles_string	GI50
Cn1c(CBr)nc2c1C(=O)c1nc(CBr)[nH]c(=O)c1C2=O	> 100 µM (inactive)
COC(=O)c1cnc(Cl)c([N+](=O)[O-])c1	2.42 µM (inactive)
CC1=NN(c2ccccc2)C(=O)/C1=C/c1ccc(O)cc1	> 100 µM (inactive)
O=C1Nc2ccccc2/C1=N/Nc1nc(-c2ccc(Br)cc2)cs1	74.8 µM (inactive)
COc1ccc(-c2nc(N3CCCC3)no2)cc1	> 100 µM (inactive)

For every item below, please supply its GI50.
1. O=c1[nH]c(Nc2nc3ccccc3[nH]2)nc(O)c1Cc1ccccc1
2. CC1(C)OC(=O)C(=Cc2ccc([N+](=O)[O-])s2)C(=O)O1
3. COC(=O)N/N=C(\C)CC(=O)Nc1ccc(Cl)cc1
4. Cc1ccc(S(=O)(=O)NNC(=O)c2cc(C)c(C)cc2N)cc1
5. Oc1ccccc1/C=N/c1ccc(Oc2ccc(Cl)cc2)c(Cl)c1
6. CC(C)(Br)C(=O)N1CCN(C(c2ccccc2)c2ccccc2)CC1

Result:
1: > 100 µM (inactive); 2: 8.22 µM (inactive); 3: > 100 µM (inactive); 4: 66.2 µM (inactive); 5: 30.1 µM (inactive); 6: 30.1 µM (inactive)

###

System: NCI-H460
Assay: NCI tumour cell line growth inhibition, 48 h
Activity calls are given as the source filed them. Rule as the data show it: active = GI50 up to about 1.1 µM and inactive = higher.
Would you mind telling me the reported GI50 of each entry?

For every item below, please supply its GI50.
1. COc1nc(N)c(/N=C/C(OC(C)=O)C(OC(C)=O)C(COC(C)=O)OC(C)=O)c(=O)n1C (stereo unspecified)
2. CC(N)Cc1ccc(F)cc1 (stereo unspecified)
3. COc1ccc(-n2c(C)nc3ccc(/N=C/c4ccccc4)cc3c2=O)cc1
4. CN1c2c(O)nc(N)nc2NCC1CCNc1ccc(C(=O)NC(CCC(=O)O)C(=O)O)cc1 (stereo unspecified)
5. CC(C#N)NCc1ccc(C(C)NC(C)C#N)cc1 (stereo unspecified)
6. C=CCN1C(=O)N/C(=C\c2ccc(Cl)cc2)C1=O

Result:
> 100 µM (inactive)
> 100 µM (inactive)
> 100 µM (inactive)
35.6 µM (inactive)
> 100 µM (inactive)
> 100 µM (inactive)
